# cell viability annotations
- Test system: MV4-11
- run-description: cell viability (% survival relative to DMSO control, bortezomib = 0%); higher = less cytotoxic
- condition-label: 10 nM; 72 h

| compound | cell viability |
| --- | --- |
| N[C@](CCCCB(O)O)(CCN1CCCCC1)C(=O)O [Arginase inhibitor 1] | 92.3% |
| CC12CCC(O)CC1CCC1C2CCC2(C)C(C3=CC(=O)OC3)CCC12O (centres undefined) [Digitoxigenin] | 120% |
| COc1cc2c(NC3CCN(C)CC3)nc(N3CCCN(C)CC3)nc2cc1OCCCN(C)C [UNC0224] | 98.7% |
| O=C1Nc2ccccc2/C1=C\NCCc1ccc(O)c(O)c1 [AC1NZZMF] | 89.4% |
| CCN(CC)CCN(Cc1ccc(-c2ccc(C(F)(F)F)cc2)cc1)C(=O)Cn1c(SCc2ccc(F)cc2)nc(=O)c2c1CCC2 [Darapladib] | 104% |
| C1CCc2nnc(C34CC5CC(CC(C5)C3)C4)n2CC1 [MERCK-544] | 100% |
| CC(C)C[C@H](NC(=O)[C@@H](O)[C@H](N)Cc1ccccc1)C(=O)O [Ubenimex] | 103% |
| C#Cc1cnc(O)nc1O [Eniluracil] | 112% |
| Sc1ncnc2nc[nH]c12 [6-mercaptopurine] | 85.5% |

---

- Tested on: myeloid leukemia patient primary cells Pat.5
- run-description: area under dose-response curve (viability, 1 nM-10 uM) (fraction (0-1)); higher = more sensitive
- condition-label: 72 h
endpoint-name: area under dose-response curve

| compound | value-qualifier | test-result |
| --- | --- | --- |
| Cc1noc2c1-c1ccccc1C(c1ccc(Cl)cc1)=N[C@H]2CC(N)=O | = | 0.74 |
| C[C@]12O[C@H](C[C@]1(O)CO)n1c3ccccc3c3c4c(c5c6ccccc6n2c5c31)CNC4=O | = | 0.929 |
| Nc1ccn([C@@H]2O[C@H](CO)[C@@H](O)[C@@H]2O)c(=O)n1 | = | 0.85 |
| CC(Cc1ccc(O)c(O)c1)C(C)Cc1ccc(O)c(O)c1 (centres undefined) | < | 0.0301 |

---

# IC50 (cell viability) annotations
- Test system: Mono-Mac-6
- condition-label: 72 h
endpoint-name: IC50 (cell viability)

| compound | test-result |
| --- | --- |
| Clc1ccc2c(c1Cl)CNCC2 | > 10 µM |
| Cl.OC[C@H]1NC[C@@H](O)[C@@H](O)[C@@H]1O [1-Deoxymannojirimycin hydrochloride] | > 10 µM |
| CC(C)Cc1sc(N)nc1-c1ccc(P(=O)(O)O)o1 | > 10 µM |
| CCCc1nn(C)c2c(O)nc(-c3cc(S(=O)(=O)N4CCN(C)CC4)ccc3OCC)nc12 | > 10 µM |
| Nc1ccn([C@@H]2O[C@H](CO)[C@@H](O)[C@@H]2O)c(=O)n1 | 0.364 µM |
| O=C(O)C(S)=Cc1c[nH]c2ccc(F)cc12 | > 10 µM |
| CN(C)c1nc(O)c2[nH]cnc2n1 [2-Dimethylamino-6-hydroxypurine] | > 10 µM |
| C1CCC(C(CC2CCCCN2)C2CCCCC2)CC1.O=C(O)/C=C\C(=O)O (centres undefined) | 3.55 µM |
| C[C@H]1O[C@@H](O[C@H]2[C@@H](O)C[C@H](O[C@H]3[C@@H](O)C[C@H](O[C@H]4CC[C@@]5(C)[C@H](CC[C@@H]6[C@@H]5C[C@@H](O)[C@]5(C)[C@@H](C7=CC(=O)OC7)CC[C@]65O)C4)O[C@@H]3C)O[C@@H]2C)C[C@H](O)[C@@H]1O | 0.0424 µM |

---

# area under dose-response curve annotations
- Test system: myeloid leukemia patient primary cells Pat.9
- run-description: area under dose-response curve (viability, 1 nM-10 uM) (fraction (0-1)); higher = more sensitive
- condition-label: 72 h

| molecule | tested-target | area under dose-response curve |
| --- | --- | --- |
| CCN(CC)CCN(Cc1ccc(-c2ccc(C(F)(F)F)cc2)cc1)C(=O)Cn1c(SCc2ccc(F)cc2)nc(=O)c2c1CCC2 [Darapladib] | myeloid leukemia patient primary cells Pat.9 | 0.625 |
| C[C@H]1O[C@@H](O[C@H]2[C@@H](O)C[C@H](O[C@H]3[C@@H](O)C[C@H](O[C@H]4CC[C@@]5(C)[C@H](CC[C@@H]6[C@@H]5C[C@@H](O)[C@]5(C)[C@@H](C7=CC(=O)OC7)CC[C@]65O)C4)O[C@@H]3C)O[C@@H]2C)C[C@H](O)[C@@H]1O [Digoxin] | myeloid leukemia patient primary cells Pat.9 | 0.609 |
| Sc1ncnc2nc[nH]c12 [6-mercaptopurine] | myeloid leukemia patient primary cells Pat.9 | 0.0529 |
| Nc1ccn([C@@H]2O[C@H](CO)[C@@H](O)[C@@H]2O)c(=O)n1 [Cytarabine] | myeloid leukemia patient primary cells Pat.9 | 0.719 |

---

- Tested on: myeloid leukemia patient primary cells Pat.6
- run-description: cell viability (% survival relative to DMSO control); higher = less cytotoxic
- condition-label: 10 nM; 72 h

| compound | tested-target | cell viability / % |
| --- | --- | --- |
| CC(Cc1ccc(O)c(O)c1)C(C)Cc1ccc(O)c(O)c1 (configuration not stated) [Masoprocol] | myeloid leukemia patient primary cells Pat.6 | 94.2 |
| Clc1ccc(COC(Cn2ccnc2)c2ccc(Cl)cc2Cl)cc1 (configuration not stated) [Econazole] | myeloid leukemia patient primary cells Pat.6 | 96 |
| CC12CCC(O)CC1CCC1C2CCC2(C)C(C3=CC(=O)OC3)CCC12O (configuration not stated) [Digitoxigenin] | myeloid leukemia patient primary cells Pat.6 | 92.2 |
| Nc1ccn([C@@H]2O[C@H](CO)[C@@H](O)[C@@H]2O)c(=O)n1 [Cytarabine] | myeloid leukemia patient primary cells Pat.6 | 78.9 |
| C[C@]12O[C@H](C[C@]1(O)CO)n1c3ccccc3c3c4c(c5c6ccccc6n2c5c31)CNC4=O [Lestaurtinib] | myeloid leukemia patient primary cells Pat.6 | 66.8 |
| CCOC(=O)N1c2ccc(C(F)(F)F)cc2[C@@H](N(Cc2cc(C(F)(F)F)cc(C(F)(F)F)c2)C(=O)OC)C[C@H]1CC [Torcetrapib] | myeloid leukemia patient primary cells Pat.6 | 80.7 |
| C[C@H]1O[C@@H](O[C@H]2[C@@H](O)C[C@H](O[C@H]3[C@@H](O)C[C@H](O[C@H]4CC[C@@]5(C)[C@H](CC[C@@H]6[C@@H]5C[C@@H](O)[C@]5(C)[C@@H](C7=CC(=O)OC7)CC[C@]65O)C4)O[C@@H]3C)O[C@@H]2C)C[C@H](O)[C@@H]1O [Digoxin] | myeloid leukemia patient primary cells Pat.6 | 96 |

---

# cell viability annotations
- System: KU-812
- run-description: cell viability (% survival relative to DMSO control, bortezomib = 0%); higher = less cytotoxic
- condition-label: 10000 nM; 72 h
endpoint-name: cell viability (%)

| molecule | test-result |
| --- | --- |
| CN(C)c1nc(O)c2[nH]cnc2n1 [2-Dimethylamino-6-hydroxypurine] | 103 |
| C[C@]12O[C@H](C[C@]1(O)CO)n1c3ccccc3c3c4c(c5c6ccccc6n2c5c31)CNC4=O | 6 |
| O=C(O)C(S)=Cc1c[nH]c2ccc(F)cc12 | 102 |
| Nc1ncnc2c1ncn2[C@@H]1O[C@H](CSCC[C@H](N)C(=O)O)[C@@H](O)[C@H]1O | 105 |
| Cl.OC[C@H]1NC[C@@H](O)[C@@H](O)[C@@H]1O [1-Deoxymannojirimycin hydrochloride] | 98.1 |

---

- System: myeloid leukemia patient primary cells Pat.7
- run-description: cell viability (% survival relative to DMSO control); higher = less cytotoxic
- condition-label: 100 nM; 72 h
# cell viability annotations
endpoint-name: cell viability (%)

| compound | value-qualifier | test-result |
| --- | --- | --- |
| CCOC(=O)N1c2ccc(C(F)(F)F)cc2[C@@H](N(Cc2cc(C(F)(F)F)cc(C(F)(F)F)c2)C(=O)OC)C[C@H]1CC | > | 100 |
| Nc1ccn([C@@H]2O[C@H](CO)[C@@H](O)[C@@H]2O)c(=O)n1 | = | 59.9 |
| Clc1ccc(COC(Cn2ccnc2)c2ccc(Cl)cc2Cl)cc1 (stereo not drawn) | = | 93 |

---

- Test system: Mono-Mac-6
- run-description: cell viability (% survival relative to DMSO control, bortezomib = 0%); higher = less cytotoxic
- condition-label: 1000 nM; 72 h

| compound | cell viability |
| --- | --- |
| Nc1ncnc2c1ncn2[C@@H]1O[C@H](CSCC[C@H](N)C(=O)O)[C@@H](O)[C@H]1O | 104% |
| C1CCC(C(CC2CCCCN2)C2CCCCC2)CC1.O=C(O)/C=C\C(=O)O (stereo not given) | 98.6% |
| C[C@H]1O[C@@H](O[C@H]2[C@@H](O)C[C@H](O[C@H]3[C@@H](O)C[C@H](O[C@H]4CC[C@@]5(C)[C@H](CC[C@@H]6[C@@H]5C[C@@H](O)[C@]5(C)[C@@H](C7=CC(=O)OC7)CC[C@]65O)C4)O[C@@H]3C)O[C@@H]2C)C[C@H](O)[C@@H]1O | -0.503% |
| O=C1Oc2ccccc2C(=O)C1CC1C(=O)Oc2ccccc2C1=O (stereo not given) | 95.7% |
| CC12CCC(O)CC1CCC1C2CCC2(C)C(C3=CC(=O)OC3)CCC12O (stereo not given) | 1.4% |
| COc1c(C)c2c(c(O)c1C/C=C(\C)CCC(=O)O)C(=O)OC2 | 80% |
| CCOC(=O)N1c2ccc(C(F)(F)F)cc2[C@@H](N(Cc2cc(C(F)(F)F)cc(C(F)(F)F)c2)C(=O)OC)C[C@H]1CC | 90.8% |
| O=C(O)C(S)=Cc1c[nH]c2ccc(F)cc12 | 74.2% |
| O=c1c2ccccc2[se]n1-c1ccccc1 | 98.1% |
| OCCN1CCN(CCCN2c3ccccc3Sc3ccc(Cl)cc32)CC1 | 100% |
| CC(Cc1ccc(O)c(O)c1)C(C)Cc1ccc(O)c(O)c1 (stereo not given) | 84.2% |
| [N-]=[N+]=CC(=O)CC[C@H](N)C(=O)O | 97.8% |
| O=C(O)c1cc2sccc2[nH]1 [4H-thieno[3,2-b]pyrrole-5-carboxylic acid] | 92.6% |
| Sc1ncnc2nc[nH]c12 | 53.7% |
| O=C1Nc2ccccc2/C1=C\NCCc1ccc(O)c(O)c1 | 96.9% |
